Reference for the values: the supplement of paper PMC13380429

- Test system: U2OS
- Method notes: cell viability relative to DMSO; higher = less toxic
- Test context: 72 h; 1000 nM
Parameter: cell viability. Scope: all listed entries.

Worked cases, answers included:
{"Compound": "Cc1cc(-c2nc(-c3ccc(OC(F)(F)F)cc3)no2)nn1Cc1ccnc(N2CCN(C3CC3)CC2)c1 [BAY-87-2243]", "Result": "73.5%"}
{"Compound": "c1ccc(CNc2ncnc3[nH]cnc23)cc1 [6-benzylaminopurine]", "Result": "99.5%"}
{"Compound": "Cc1cc(Cl)ccc1OCCCC(=O)NO [droxinostat]", "Result": "100%"}
{"Compound": "C[C@]12CC[C@H](O)CC1=CC[C@@H]1[C@@H]2CC[C@]2(C)C(c3cccnc3)=CC[C@@H]12 [Abiraterone (CB-7598)]", "Result": "103%"}
{"Compound": "O=C(O)[C@H]1CC[C@H](c2cc3cccnc3c(-c3cccc(F)c3)n2)CC1", "Result": "96.5%"}
{"Compound": "OCc1cc([C@@H](O)CNCCCCCCOCCOCc2c(Cl)cccc2Cl)ccc1O [vilanterol]", "Result": "100%"}
{"Compound": "COC(=O)C1=C(C)NC(C)=C(C(=O)OC2CCCN(Cc3ccccc3)C2)C1c1cccc([N+](=O)[O-])c1 (stereo not drawn) [benidipine]", "Result": "99.6%"}

Consider now this further compound.
Missing value: cell viability, U2OS, entry N[C@H](C(=O)O)[C@H](O)c1ccc(O)c(O)c1 [droxidopa] . Fill in? 97.2%
